Where these numbers come from: paper PMC10397247

- Study system: T1, 4H780-bA
- T1 chain: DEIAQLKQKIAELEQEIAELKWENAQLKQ
- Procedure text: two-hybrid library CCNG1;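 also: natural log of median RNA to DNA barcode read ratio; higher means stronger binding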
Everything with interaction score lower than -1 is 0 (no); everything else, including exactly -1, is 1 (yes).

Binder	Assigned label
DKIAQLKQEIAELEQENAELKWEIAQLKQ [4H2586-bA]	0 (no)
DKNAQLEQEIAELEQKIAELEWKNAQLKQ [4H3112-bA]	1 (yes)
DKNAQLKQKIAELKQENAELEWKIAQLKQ [4H3926-bA]	1 (yes)
DEIAQLEQKIAELKQENAELKWEIAQLKQ [4H346-bA]	1 (yes)
DEIAQLKQKIAELEQEIAELKWENAQLKQ [4H780-bA]	1 (yes)
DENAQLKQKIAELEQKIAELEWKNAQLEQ [4H1831-bA]	0 (no)
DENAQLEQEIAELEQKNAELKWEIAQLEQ [4H1081-bA]	1 (yes)
DEIAQLKQEIAELEQKNAELKWKNAQLEQ [4H575-bA]	0 (no)
DEIAQLKQENAELKQKNAELEWEIAQLKQ [4H754-bA]	0 (no)
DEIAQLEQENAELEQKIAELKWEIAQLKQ [4H170-bA]	1 (yes)
DKNAQLKQKNAELKQKIAELKWEIAQLEQ [4H4073-bA]	0 (no)
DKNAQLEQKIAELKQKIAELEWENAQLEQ [4H3427-bA]	0 (no)
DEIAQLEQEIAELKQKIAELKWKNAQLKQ [4H112-bA]	1 (yes)
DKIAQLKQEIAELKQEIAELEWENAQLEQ [4H2627-bA]	1 (yes)
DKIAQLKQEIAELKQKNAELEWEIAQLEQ [4H2673-bA]	0 (no)
DEIAQLKQENAELEQKIAELKWENAQLEQ [4H683-bA]	0 (no)
